- target.under.test: human Kv 1.5 (Homo sapiens, UniProt P22460)
- Construct: expressed in transfected cells; host or cells: mammalian L-929 cells (mouse fibroblasts)
- Sequence (P22460 whole entry): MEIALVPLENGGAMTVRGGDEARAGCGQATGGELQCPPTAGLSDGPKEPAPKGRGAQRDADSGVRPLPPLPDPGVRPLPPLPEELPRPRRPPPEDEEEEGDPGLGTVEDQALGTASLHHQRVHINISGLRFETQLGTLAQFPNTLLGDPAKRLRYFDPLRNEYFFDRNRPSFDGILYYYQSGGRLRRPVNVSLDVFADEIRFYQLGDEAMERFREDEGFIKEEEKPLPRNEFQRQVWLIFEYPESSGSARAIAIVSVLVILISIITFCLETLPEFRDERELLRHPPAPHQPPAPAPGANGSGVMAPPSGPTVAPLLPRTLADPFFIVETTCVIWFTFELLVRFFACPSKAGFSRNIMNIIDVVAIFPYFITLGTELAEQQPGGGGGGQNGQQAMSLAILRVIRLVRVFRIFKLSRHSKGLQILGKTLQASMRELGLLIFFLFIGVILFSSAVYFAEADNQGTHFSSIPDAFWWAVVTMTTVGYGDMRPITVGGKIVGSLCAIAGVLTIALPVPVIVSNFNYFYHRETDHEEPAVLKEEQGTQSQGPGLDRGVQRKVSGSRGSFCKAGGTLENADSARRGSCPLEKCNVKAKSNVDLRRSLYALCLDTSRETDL
- assay.info: block of IKur current in patch clamped L-929 cells expressing human Kv1.5
- Assay type: cell-based
- test.context: L929, 0.3 μM; patch clamped mammalian L-929 cells stably expressing IKur protein; read-out: Percentage inhibition of Kv1.5 in L-929 cells at 0.3 μM
experimental.readout: inhibition at 0.3 µM (%)

| smiles.str | inhibition at 0.3 µM (%) |
| --- | --- |
| NS(=O)(=O)c1cncc(-c2nnc(Nc3cccc(F)c3)c3c(-c4ccccc4)ccn23)c1 | 91 |
| NS(=O)(=O)c1cncc(-c2nnc(NCc3ccccc3F)c3c(-c4ccccc4)ccn23)c1 | 93 |
| NS(=O)(=O)c1cncc(-c2nnc(NCc3ccccc3)c3c(-c4ccccc4)ccn23)c1 | 89 |
| NS(=O)(=O)c1cncc(-c2nnc(NCc3c(F)cccc3F)c3c(-c4ccccc4)ccn23)c1 | 92 |

Reference for the values: patent US9403834B2
